- ASSAY: Solubility test
- Assay type: physicochemical
- MEASUREMENT PARAMETERS: artificial intestinal juice (phosphate buffer), fassgf or other biorelevant, kinetic from dmso stock; 1% DMSO, artificial intestinal juice pH 6.8, 16 hours at 25° C.
QUANTITY KIND: solubility at 16 h (µM)
The answer is to be given in µM; state only the numeric part.

State, in one line, measured solubility at 16 h of Cc1c(C(=O)Nc2cccc(C(F)(F)F)c2)nc(-c2ccccc2)n1CCCN1CCOCC1 [Compound I-087]
5.2

---

- TESTED TARGET: human TRPV4 (Homo sapiens (Human), UniProt Q9HBA0)
- Sequence (Q9HBA0 whole entry): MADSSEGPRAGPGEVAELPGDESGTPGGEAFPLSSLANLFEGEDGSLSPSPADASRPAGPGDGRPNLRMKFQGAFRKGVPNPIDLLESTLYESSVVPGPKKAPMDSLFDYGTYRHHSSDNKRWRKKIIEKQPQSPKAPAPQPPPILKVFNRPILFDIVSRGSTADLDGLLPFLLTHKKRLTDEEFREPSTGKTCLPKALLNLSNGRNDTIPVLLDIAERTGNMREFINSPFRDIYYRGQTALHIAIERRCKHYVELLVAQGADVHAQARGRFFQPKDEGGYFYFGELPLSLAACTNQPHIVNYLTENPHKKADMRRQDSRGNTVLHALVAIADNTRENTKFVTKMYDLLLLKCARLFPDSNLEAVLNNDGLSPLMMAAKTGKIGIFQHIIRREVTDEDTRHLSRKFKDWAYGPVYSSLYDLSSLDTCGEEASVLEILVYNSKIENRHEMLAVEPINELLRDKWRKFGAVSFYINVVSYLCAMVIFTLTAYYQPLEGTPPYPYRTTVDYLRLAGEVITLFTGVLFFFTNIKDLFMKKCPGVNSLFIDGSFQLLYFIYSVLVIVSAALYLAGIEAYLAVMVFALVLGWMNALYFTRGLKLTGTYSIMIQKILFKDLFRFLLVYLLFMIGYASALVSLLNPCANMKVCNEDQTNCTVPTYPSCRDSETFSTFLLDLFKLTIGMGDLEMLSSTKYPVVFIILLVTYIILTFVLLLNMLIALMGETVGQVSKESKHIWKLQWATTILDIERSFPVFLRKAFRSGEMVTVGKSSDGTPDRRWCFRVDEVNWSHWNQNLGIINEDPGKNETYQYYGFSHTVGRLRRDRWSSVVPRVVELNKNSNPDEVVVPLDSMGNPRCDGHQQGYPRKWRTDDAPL
- ASSAY: Test Example 1: measurement of TRPV4 inhibitory activity (Fluo 4-AM, FLIPR TETRA, 4α-PDD 1 μmol/L)
- Type: cell-based
- MEASUREMENT PARAMETERS: hTRPV4/CHO cells, calculated from IC50 and 4α-PDD EC50
- Experimental: For each compound, TRPV4 inhibitory activity was measured using cells. (1) The TRPV4 inhibitory activity was measured using CHO-K1 cells stably expressing human TRPV4 (hTRPV4/CHO cells). […] (7) Diluted compound solution was dispensed to each well in the compound plate, and mixed with built-in Pipette and Mixer of the Fluorescence analysis system FLIPR TETRA (Molecular devices). […] TRPV4 inhibitory activity (IC50 value and Ki value) of a compound was evaluated according to the following procedure. […]
QUANTITY KIND: log10 Ki (log10 of the value in nM)
Plainly stated, the numbers are log10 of Ki given in nM.

Report log10 Ki on human TRPV4 (Homo sapiens (Human), UniProt Q9HBA0) for this entry: `Cc1c(C(=O)Nc2cccc(C(F)(F)F)c2)cc(C(C)(C)C)n1[C@H]1CC[C@H](N(C)C)CC1`
3.18

Supply log10 Ki measured with human TRPV4 (Homo sapiens (Human), UniProt Q9HBA0) for `Cc1c(C(=O)Nc2cccc(C(F)(F)F)c2)cc(C(C)(C)C)n1[C@H]1CC[C@@H](N(C)S(C)(=O)=O)CC1` .
3.04

Give measured log10 Ki for `Cc1c(C(=O)Nc2cccc(C(F)(F)F)c2)cc(C(C)(C)C)n1CC(C)(C)CN1CCNCC1` (human TRPV4 (Homo sapiens (Human), UniProt Q9HBA0)).
2.65

Report value only: log10 Ki, human TRPV4 (Homo sapiens (Human), UniProt Q9HBA0), `CC(=O)N1CCC(n2c(C(C)(C)C)cc(C(=O)Nc3cccc(C(F)(F)F)c3)c2C)CC1`
3.41

Write down the reported log10 Ki (system: human TRPV4 (Homo sapiens (Human), UniProt Q9HBA0)) of `Cc1c(C(=O)Nc2cccc(C(F)(F)F)c2)cc(C2CCNCC2)n1CCCN1CCOCC1`
3.67

Provide log10 Ki, system human TRPV4 (Homo sapiens (Human), UniProt Q9HBA0), entry `Cc1c(C(=O)Nc2cccc(C(F)(F)F)c2)cc(C2CCN(S(C)(=O)=O)CC2)n1CCCN1CCOCC1`
3.32

Look up and report log10 Ki, with human TRPV4 (Homo sapiens (Human), UniProt Q9HBA0) as system, for `COC(=O)CN1CCC(n2c(C(C)(C)C)cc(C(=O)Nc3cccc(C(F)(F)F)c3)c2C)CC1`
3.32
